# assay_overview: In vitro inhibition of calcium phosphate crystallization in human plasma (spectrophotometric assay)
# Type: biochemical
# settings: 0-100 μM, 1.5 mM phosphate, 12.5 mM calcium, pH 7.4, absorbance 550 nm, slope 6-24 min, read-out: Relative Potency
pEC50: −log10 of the molar value.
For each entry below, report its pEC50 value.

Solved cases below.
compound	result
O=P(O)(O)OC1C(OCCCCCn2cncn2)C(OP(=O)(O)O)C(OP(=O)(O)O)C(OP(=O)(O)O)C1OCCCCCn1cncn1 (centres unmarked)	< 5.00
COCCCCCCCCC#CCCCCCCCCCOC1C(OP(=O)(O)O)C(OCCCCCCCCCC#CCCCCCCCCOC)C(OP(=O)(O)O)C(OP(=O)(O)O)C1OP(=O)(O)O (centres unmarked)	≥ 5.30
COCc1cn(CCCCCCOC2C(OP(=O)(O)O)C(OCCCCCCn3cc(C(=O)O)nn3)C(OP(=O)(O)O)C(OP(=O)(O)O)C2OP(=O)(O)O)nn1 (centres unmarked)	≥ 5.30
COC(=O)NCCCOC1C(OP(=O)(O)O)C(OCCCNC(=O)OC)C(OP(=O)(O)O)C(OP(=O)(O)O)C1OP(=O)(O)O (centres unmarked)	< 5.00
COCc1cn(CCCCCCO[C@@H]2[C@@H](OP(=O)([O-])[O-])[C@H](OCCCCCCn3cc(COC)nn3)[C@@H](OP(=O)([O-])[O-])[C@@H](OP(=O)([O-])[O-])[C@H]2OP(=O)([O-])[O-])nn1.[Na+].[Na+].[Na+].[Na+].[Na+].[Na+].[Na+].[Na+]	≥ 5.30

Report pEC50 for each item below.
1. CCCNC(=O)NCCCCCOC1C(OP(=O)(O)O)C(OCCCCCNC(=O)NCCC)C(OP(=O)(O)O)C(OP(=O)(O)O)C1OP(=O)(O)O (centres unmarked)
2. CC(=O)N1CCN(CCOC2C(OP(=O)(O)O)C(OCCN3CCN(C(C)=O)CC3)C(OP(=O)(O)O)C(OP(=O)(O)O)C2OP(=O)(O)O)CC1 (centres unmarked)
3. CCCCCOC1C(OP(O)(O)=S)C(OCCCCC)C(OP(O)(O)=S)C(OP(O)(O)=S)C1OP(O)(O)=S (centres unmarked)
4. O=P(O)(O)O[C@@H]1[C@@H](OCCC2CCCC2)[C@H](OP(=O)(O)O)[C@H](OP(=O)(O)O)[C@H](OP(=O)(O)O)[C@H]1OCCC1CCCC1
5. O=P(O)(O)OC1C(OCCCc2cccc(C(F)(F)F)c2)C(OP(=O)(O)O)C(OP(=O)(O)O)C(OP(=O)(O)O)C1OCCCc1cccc(C(F)(F)F)c1 (centres unmarked)

≥ 5.30
5.00 to 5.30
< 5.00
≥ 5.30
< 5.00

Using the record for O=C(NCCCOC1C(OP(=O)(O)O)C(OCCCNC(=O)NC2CCCC2)C(OP(=O)(O)O)C(OP(=O)(O)O)C1OP(=O)(O)O)NC1CCCC1 (centres unmarked) , state its measured pEC50. ≥ 5.30

* * *

# assay_overview: In vitro inhibition of calcium phosphate crystallization in human plasma (spectrophotometric assay)
# Assay type: biochemical
# settings: 0-100 μM, 1.5 mM phosphate, 12.5 mM calcium, pH 7.4, absorbance 550 nm, slope 6-24 min, read-out: Relative Potency
pEC50: −log10 of the molar value.
assay_readout: pEC50

compound	pEC50
O=C([O-])CCCCCO[C@@H]1[C@@H](OP(=O)([O-])[O-])[C@H](OCCCCCC(=O)[O-])[C@@H](OP(=O)([O-])[O-])[C@@H](OP(=O)([O-])[O-])[C@H]1OP(=O)([O-])[O-].[Na+].[Na+].[Na+].[Na+].[Na+].[Na+].[Na+].[Na+].[Na+].[Na+]	≥ 5.30
O=P(O)(O)O[C@@H]1[C@@H](OCCCC(F)(F)F)[C@H](OP(=O)(O)O)[C@H](OP(=O)(O)O)[C@H](OP(=O)(O)O)[C@H]1OCCCC(F)(F)F	≥ 5.30

Now for a further compound.
Using the record for O=P(O)(O)OC1C(OCCC2CC2)C(OP(=O)(O)O)C(OP(=O)(O)O)C(OP(=O)(O)O)C1OCCC1CC1 (stereo not drawn) , state its measured pEC50. ≥ 5.30
